Values were extracted from paper PMC9482650.

Target: T1, GRIP1_2, Q9Y3R0
T1 sequence (Q9Y3R0 145-248, limits assumed, looked up): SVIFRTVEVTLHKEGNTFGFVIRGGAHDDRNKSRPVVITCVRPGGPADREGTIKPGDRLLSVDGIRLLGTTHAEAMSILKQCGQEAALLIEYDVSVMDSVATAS
Assay: holdup assay
Parameters: key: below the threshold = too weak to quantify, mostly under pKd 3.1 to 4
Settings: plain residues with an end cap or a label only (N-terminal biotin on a linker: ttds)
MEASURED ATTRIBUTE: pKd

Past entries and their recorded results:
NPDALPETLV [ARHGAP6, O43182] : below the threshold
PPRQRSETQV [HPV82-E6, Q9IR59] : below the threshold
SHSSKGETAV [FZD7, O75084] : below the threshold
SRSRRRETAL [HPV33-E6, P06427] : below the threshold
GARVSKETPL [MAPK12, P53778] : below the threshold

Any idea what pKd was measured for GRLLGLETNV [ARHGEF26, Q96DR7] ? below the threshold

Any idea what pKd was measured for QRPYRRESEI [KCNJ12, Q14500] ? below the threshold

Any idea what pKd was measured for FVETQHQTQV [FAT3, Q8TDW7] ? 3.51

Any idea what pKd was measured for PFRSRSPSEV [GPR6, P46095] ? 3.52

Any idea what pKd was measured for SGGKRKETLV [NET1, Q7Z628] ? below the threshold

Any idea what pKd was measured for SSIDLWETAL [SLC15A5, A6NIM6] ? below the threshold

Any idea what pKd was measured for DLDEEEDTHL [PODXL, O00592] ? 3.63

Any idea what pKd was measured for PSRDRKETSI [RALBP1, Q15311] ? 3.45

Any idea what pKd was measured for KQVVPFSSSV [GDA, Q9Y2T3] ? below the threshold

Any idea what pKd was measured for KLVIKTETTV [RASSF6, Q6ZTQ3] ? below the threshold
